Documented %Inh across a set of molecules
Test system: CAMK1G;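 further: KINOMEscan kinase panel screen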
Details: concentration: 1 μM, replicates: in singlicate; n = 1
measurement.label: %Inh (%)

molecule=CC(=O)Nc1nc2cnc(Nc3cc(NC(=O)c4cccc(CCC#N)c4)ccc3C)nc2s1 observed_result=0
molecule=Cl.c1ccc(-c2n[nH]cc2-c2ccnc(-c3ccc(CN4CCOCC4)cc3)c2)nc1 observed_result=0
molecule=Cc1c(O)cccc1Nc1ccnc2ccc(C(F)(F)F)cc12.Cl observed_result=0
molecule=Cn1ccc2ncnc(Oc3cccc(C(=O)Nc4ccccc4)c3)c21 observed_result=17
molecule=CCn1c(-c2ccccn2)nc2cnccc21 observed_result=0
molecule=O=C(Nc1n[nH]c2cc(-c3cccc(F)c3F)ccc12)C1CC1 observed_result=100
molecule=Cn1cncc1-c1ccc2ncnc(Nc3ccc(OCc4ccccc4)cc3)c2c1 observed_result=16
molecule=COc1cccc(-c2cc(-c3c[nH]nc3-c3ccccn3)ccn2)c1 observed_result=0
molecule=O=c1cc(N2CCOCC2)nc2n(Cc3cccc(Cl)c3Cl)ccn12 observed_result=0
molecule=O=S(=O)(c1ccc(-c2ccnc3[nH]ccc23)cc1)N1CCCC1 observed_result=33
molecule="O=C(Nc1ccc2c(c1)OCO2)NC1CCN(c2ccnc(Nc3ccc(F)cc3)n2)C1 (stereo not shown)" observed_result=23
molecule=O=C(Nc1n[nH]c2nc(-c3nccs3)c(Br)cc12)C1CCCC1 observed_result=8
molecule=Clc1cc(Cl)cc(Nc2ccnc(Nc3cc(Cl)cc(Cl)c3)n2)c1 observed_result=0
molecule=Cc1cc(-c2ccc3c(c2)CC[C@@H](N[C@@H](C)c2ccccc2)C3)cnc1N.Cl observed_result=100
molecule=Cn1ccc2ncnc(Oc3ccc(Nc4nc5ccccc5[nH]4)cc3)c21 observed_result=0
molecule=CN1C(=O)C(Nc2ccc(Cl)c(C(=O)O)c2)=C(c2ccc(Cl)cc2)C1=O observed_result=100
molecule="COc1cc2ncn(-c3cc(OCC4CCCO4)c(C(N)=O)s3)c2cc1OC (stereo not shown)" observed_result=0
molecule=C[C@@H]1CCCCN1c1cc(-c2ccc3c(N)n[nH]c3c2)nc(N)n1 observed_result=0
molecule=Nc1nc(-c2nccs2)c(-c2ccnc3ccccc23)s1 observed_result=0
molecule=Cc1ccc(NC(=O)Nc2cccc(Cl)c2)cc1-c1ccc(C(=O)Nc2ccncc2)cc1 observed_result=0
molecule=CS(=O)(=O)c1ccc(-c2nc3n(c2-c2ccncc2)CCC3)cc1 observed_result=14
molecule=Cl.O=C(Nc1cccc(-c2nn3ncccc3c2-c2ccnc(Nc3cccnc3)n2)c1)c1c(F)cccc1F observed_result=0
molecule=COc1cc2ncnc(Nc3ccc4nc(-c5ccccc5)[nH]c4c3)c2cc1OC.Cl observed_result=0
molecule=Cn1ccc2ncnc(Oc3ccc(NC(=O)Nc4ccccc4)cc3)c21 observed_result=22
molecule=CCn1c(-c2cccnc2O)nc2cnccc21 observed_result=0
molecule="CCCc1ccc(S(=O)(=O)NC2CCN(c3ccnc(Nc4ccc(F)cc4)n3)C2)cc1 (stereo not shown)" observed_result=0
molecule=COc1ccc(C2=C(Nc3cccc(C(=O)O)c3)C(=O)NC2=O)cc1 observed_result=0
molecule=Fc1cccc(COc2nnc(-c3ccc4c(c3)CCO4)o2)c1 observed_result=12
molecule=O=C(Nc1ccccc1)Nc1cccc(Oc2ccc3nccn3n2)c1 observed_result=0
molecule=Fc1cc(Cl)ccc1Nc1ccnc2cc(-c3ccc(CN4CCCCC4)o3)ccc12 observed_result=0
molecule=O=C1NC(=O)C(N2CCc3ccccc32)=C1c1ccccc1Cl observed_result=0
